System: Ps. aeruginosa
Experiment: MIC, two-fold serial agar dilution in Mueller-Hinton agar, group (G-)-III
Assay type: cell-based
Conditions: Pseudomonas aeruginosa, 7 strains, read-out: Geometric Mean of MIC, (G-)-III
Procedure: In the primary evaluation of the compounds of this invention, the Minimum Inhibitory Concentrations (MIC's) of the compounds were determined by the two-fold serial agar dilution method in Mueller-Hinton agar against 32 strains of test organisms in six groups. (G-)III: Ps. aeruginosa (7 strains)
Entries whose MIC is below 2 µg/mL take Criterion met; entries at or above 2 µg/mL take Criterion not met.

Molecule	Label
CSc1scc[n+]1C/C=C/C1=C(C(=O)[O-])N2C(=O)C(NC(=O)/C(=N\OC3(C(=O)O)CCC3)c3csc(N)n3)[C@H]2SC1 (stereo partly shown)	Criterion met
CO/N=C(\C(=O)NC1C(=O)N2C(C(=O)[O-])=C(/C=C/C[n+]3ccc(N)cc3)CS[C@H]12)c1csc(N)n1 (stereo partly shown)	Criterion not met
CC(C)(O/N=C(\C(=O)NC1C(=O)N2C(C(=O)[O-])=C(/C=C/C[n+]3ccccc3)CS[C@H]12)c1csc(N)n1)C(=O)O (stereo partly shown)	Criterion not met
CO/N=C(\C(=O)NC1C(=O)N2C(C(=O)[O-])=C(/C=C/C[n+]3ccccc3)CS[C@H]12)c1csc(N)n1 (stereo partly shown)	Criterion not met
CC(C)(O/N=C(\C(=O)NC1C(=O)N2C(C(=O)[O-])=C(/C=C/C[N+]3(C)CCCC3)CS[C@H]12)c1csc(N)n1)C(=O)O (stereo partly shown)	Criterion not met
CO/N=C(\C(=O)NC1C(=O)N2C(C(=O)[O-])=C(/C=C/C[n+]3cccc(N)c3)CS[C@H]12)c1csc(N)n1 (stereo partly shown)	Criterion not met
